Assign kon to each entry below.
Target: T1, Macaca fascicularis (mf) RET.mmh (Macaca fascicularis)
T1 construct: also called monkey RET
T1 chain: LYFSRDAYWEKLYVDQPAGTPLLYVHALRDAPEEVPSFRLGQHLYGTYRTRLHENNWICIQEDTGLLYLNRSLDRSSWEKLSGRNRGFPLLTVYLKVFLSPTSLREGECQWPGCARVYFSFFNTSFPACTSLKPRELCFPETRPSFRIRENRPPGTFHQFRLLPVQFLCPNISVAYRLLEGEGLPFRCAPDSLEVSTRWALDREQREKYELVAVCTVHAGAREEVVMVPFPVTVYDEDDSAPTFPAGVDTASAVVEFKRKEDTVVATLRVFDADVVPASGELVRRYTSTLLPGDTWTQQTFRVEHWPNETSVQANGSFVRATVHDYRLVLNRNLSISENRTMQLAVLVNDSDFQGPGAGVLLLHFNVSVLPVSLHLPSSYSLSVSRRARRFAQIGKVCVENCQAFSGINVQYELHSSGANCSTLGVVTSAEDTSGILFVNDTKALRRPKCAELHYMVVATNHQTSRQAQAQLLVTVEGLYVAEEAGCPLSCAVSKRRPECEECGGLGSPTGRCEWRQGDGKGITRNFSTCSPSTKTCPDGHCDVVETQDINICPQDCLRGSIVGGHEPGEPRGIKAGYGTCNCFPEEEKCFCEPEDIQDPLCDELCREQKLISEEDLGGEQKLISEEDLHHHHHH
Experiment: SPR Biacore T200, mAb capture, 37 C
Numbers only, in M⁻¹ s⁻¹.

Below are worked cases with known answers.
- BINDER: "H4H8087P (antibody, human IgG4, V domains shown, human IgG4 Fc (H4H prefix)) VH: QVQLVESGGGVVQPGRSLRLSCAASGFSFSSYGMHWVRQAPGKGLEWVAVMWYDGSNEYYADSVKGRFIISRDNSKSTLYLEMNSLRAEDTALYYCAREDWDEGYYYGMDVWGQGTTVTVSS VL: DIQMTQSPSSLFASVGDRVTITCRASQDIRYDLGWYQQKPGKAPKRLIYASSILESGVPSRFSGSGSGTEYTLTISTLQSEDFAIYYCLQHNSFPWTFGQGTKVEIK"
  ENDPOINT RESULT: 836000
- BINDER: "H4H8045P (antibody, human IgG4, V domains shown, human IgG4 Fc (H4H prefix)) VH: EVQLVESGGALVQPGGSLRLSCAASGFTFSNYAMTWVRQAPGMGLEWVSGISSSGASTFYADSVKGRFTISRDNSKNTLYLQMNSLRAEDTAVYYCAKEDYWGWFDYWGQGTLVTVSS VL: DIQLTQSPSFLSASVGDRVTITCWASQDVSSYLAWYQQEPGKAPKVLIYDASTLQSGVPSRFSGSGSGTEFTLTISSLQPEDFAPYYCQQLNSYPYTFGQGTKLEIK"
  ENDPOINT RESULT: 261000
- BINDER: "H4H8062P (antibody, human IgG4, V domains shown, human IgG4 Fc (H4H prefix)) VH: EVQLVESGGGLVQPGGSLRLSCSVSGFIFKNYAMRWVRQAPGKGLEWVSGISGSGGITYYADSVRGRVTISRDNSKNTLDLQMTNLRAEDTAVYYCAKAEYSSSGAYFDYWGQGTLVTVSS VL: DIQMTQSPSSLSASVGDRVTITCRASQSIHNYLNWYLQRPGKAPKLLVYAASSLQSGVPSRFSGRGSGTDFTLTISSLQPEDFATYYCQQSYSAPYSFGQGTKLEIK"
  ENDPOINT RESULT: 678000
- BINDER: "H4H8056P (antibody, human IgG4, V domains shown, human IgG4 Fc (H4H prefix)) VH: QVQLVESGGGVVQPGRSLRLSCAASGFTFRNYGMHWVRQAPGKGLEWVAVKRYDGSDEYFVDSVKGRFTISRDNSKNTLFLQMNSLRVDDTAVYYCARETPITGTTLDYWGQGTLVTVSS VL: DIQMTQSPSSLSASVGDRVTITCRTSQSITNYLNWYQQKPGKAPKLLIYAASRSQSGVPSRFSGSGSGTDFTLTISSLQPEDFATYYCQQSYSTPLTFGGGTKVEIK"
  ENDPOINT RESULT: 303000
- BINDER: "H4H8071P (antibody, human IgG4, V domains shown, human IgG4 Fc (H4H prefix)) VH: EVQLVESGGGLVQPGGSLRLSCAASGFTFTTYFMSWVRQAPGKGLEWVSGISGSGTSTFYVDSMKGRFTISRDNSKNTLYLQMNSLRVEDTAVYFCAKENTYGHFDFWGQGTLVTVSS VL: DIQLTQSPSFLSASVGDRVTITCWASQDISSHLAWYQQKPGKAPKVLIYDASTLQSGVPSRISGSGSGTEFTLTISSLQPEDFAAYYCQQLDGYPYTFGQGTKLEIK"
  ENDPOINT RESULT: 161000

For each entry beneath this line, provide reported kon.
1. H4H8083P (antibody, human IgG4, V domains shown, human IgG4 Fc (H4H prefix)) VH: QVQLVESGGGVVQPGRSLRLSCAASGFTFNNYVMHWVRQAPGKGLEWVALIWYDGSNKYYADSVKGRFTISRDNSKNALNLQMNSLRAEDTAVYFCARVSIAARNYYYGGLDVWGQGTTVTVSS VL: EIVLTQSPGTLSLSPGERATLSCRASQSVSSTYLAWYQQKPGQAPRLLIYGASSRATGIPDRFSGSGSGTDFTLTISRLEPEDFAVYYCQHYGGSPLTFGGGTKVEIK
2. H4H8058P (antibody, human IgG4, V domains shown, human IgG4 Fc (H4H prefix)) VH: QVQLVESGGGVGQPGRSLRLSCVASGFTFRNYGMHWVRQAPGKGLDWVAIIGYDGSKEYNVDSVKGRFTISRDNSKNTLYLQMNSLGAEDTAIYYCARESPITGTTFDYWGQGTLVTVSS VL: DIQMTQSPPSLSASVGDRVTITCRASQSIGNYLNWYQQKPGKAPKILIYAASRLQSGVPSRFSGSGSGTDFTLTISSLQPEDFATYYCQQSYSTPLTFGGGTKVEIK
3. H4H8085P (antibody, human IgG4, V domains shown, human IgG4 Fc (H4H prefix)) VH: QVQLVESGGGVVQPGRSLRLSCTASGFTFDNYGMHWVRQAPGKGLEWVAVISYDGSNTFYADSVKGRFTISRDNSKNALYLQMNSLRAEDTAVYYCAKDLEFDILIGYPFDSWGRGTLVTVSS VL: DIQLTQSPSFLSASVGDRVTITCWASQDISRYLAWYQQKPGKAPNLLIYAASTLQSGVPSRFSGSGSGTEFTLTINSLQPEDFATYYCQQLFSYPRTFGQGTKVEIK
4. H4H8060P (antibody, human IgG4, V domains shown, human IgG4 Fc (H4H prefix)) VH: QVTLKESGPVLVKPTETLTLTCTVSGFSLSSARMGVSWIRQPPGKALEWLAHIFSTDEKSYSTSLKSRLSISKDTSLSQVVLIMTNMDPVDTATYYCARRTTMAPYYYYYGMDVWGHGTTVTVSS VL: AIQMTQSPASLSASVGDRVTITCRASQGIRNDLGWYQQKPGKAPKLLISAASSLQSGVPSRFSGSGSGTDFTLTISSLQPEDFATYYCLQDYKYPWTFGQGTKVEIK
5. H4H8066P (antibody, human IgG4, V domains shown, human IgG4 Fc (H4H prefix)) VH: EVQLVESGGGLVQPGGSLRLSCEASGFTFSRYAMTWVRQAPGKGLEWVSGISGSGGSTFYVDSLQGRFTLSRDNSKHTLFLQMNSLRAEDTAIYYCAKENTYGHFDYWGQGTLVTVSS VL: DIQLTQSPSFLSASVGDRVTITCWASQDISTYLAWYQQKPGKAPQVLIYAASSLQYGVPSRFSGSGSGTEFTLTITSLQPEDFATYYCQQLIGYPYIFGQGTKLEIK

1: 283000; 2: 543000; 3: 152000; 4: 1.12e+06; 5: 81900

Data origin: patent US20220185900A1
